B1: Nuclear receptor subfamily 5 group A member 2 (Homo sapiens), O00482-2 (parent)
chain: MSSNSDTGDLQESLKHGLTPIVSQFKMVNYSYDEDLEELCPVCGDKVSGYHYGLLTCESCKGFFKRTVQNNKRYTCIENQNCQIDKTQRKRCPYCRFQKCLSVGMKLEAVRADRMRGGRNKFGPMYKRDRALKQQKKALIRANGLKLEAMSQVIQAMPSDLTISSAIQNIHSASKGLPLNHAALPPTDYDRSPFVTSPISMTMPPHGSLQGYQTYGHFPSRAIKSEYPDPYTSSPESIMGYSYMDSYQTSSPASIPHLILELLKCEPDEPQVQAKIMAYLQQEQANRSKHEKLSTFGLMCKMADQTLFSIVEWARSSIFFRELKVDDQMKLLQNCWSELLILDHIYRQVVHGKEGSIFLVTGQQVDYSIIASQAGATLNNLMSHAQELVAKLRSLQFDQREFVCLKFLVLFSLDVKNLENFQLVEGVQEQVNAALLDYTMCNYPQQTEKFGQLLLRLPEIRAISMQAEEYLYYKHLNGDVPYNNLLIEMLHAKRA

- Variants of: B1
- condition_info: with prox1_human PROX1, Q92786
- Sequence (Q92786 whole entry): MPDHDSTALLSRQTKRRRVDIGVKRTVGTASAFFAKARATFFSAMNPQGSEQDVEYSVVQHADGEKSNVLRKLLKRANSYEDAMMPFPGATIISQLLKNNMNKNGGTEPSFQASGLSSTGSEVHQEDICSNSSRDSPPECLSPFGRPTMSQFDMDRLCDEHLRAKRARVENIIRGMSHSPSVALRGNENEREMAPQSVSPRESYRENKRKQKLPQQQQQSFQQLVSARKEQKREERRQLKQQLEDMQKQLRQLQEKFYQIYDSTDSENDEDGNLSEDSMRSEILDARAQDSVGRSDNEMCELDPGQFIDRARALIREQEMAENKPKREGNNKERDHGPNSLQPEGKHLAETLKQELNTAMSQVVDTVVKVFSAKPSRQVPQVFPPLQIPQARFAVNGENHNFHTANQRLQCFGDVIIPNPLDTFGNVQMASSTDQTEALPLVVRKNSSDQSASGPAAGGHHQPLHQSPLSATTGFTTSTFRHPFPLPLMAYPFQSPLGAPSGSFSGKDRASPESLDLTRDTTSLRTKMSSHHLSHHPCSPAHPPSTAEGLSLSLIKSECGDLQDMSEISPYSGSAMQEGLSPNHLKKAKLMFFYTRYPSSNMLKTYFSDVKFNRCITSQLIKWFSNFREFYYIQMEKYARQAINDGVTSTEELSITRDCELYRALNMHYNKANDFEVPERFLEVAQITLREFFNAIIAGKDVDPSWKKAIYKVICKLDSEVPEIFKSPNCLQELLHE
quantity_measured: effect of a mutation on the interaction

D326A;D327A;M329A	decreasing interaction
Q273A;Q281A;Q282A	disrupting interaction
K301A;Q305A;F308A	decreasing interaction
L453A;L454A	disrupting interaction
